Test system: TEC;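 note: KINOMEscan kinase panel screen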
Details: concentration: 1 μM, replicates: in singlicate; n = 1
observation_type: %Inh (%)
Reply numerically in %, unit not repeated.

Worked cases, %Inh given:
[[record]]
compound = "CN1c2ccc(NCc3ccc(F)cc3)cc2-c2c(cnn2C)S1(=O)=O"
observation_type = "%Inh"
val = 0

[[record]]
compound = "C[C@@H](Oc1cc(-n2cnc3ccc(NC(=O)NC(C)(C)C)cc32)sc1C(N)=O)c1ccccc1Cl"
observation_type = "%Inh"
val = 20

[[record]]
compound = "NCCNS(=O)(=O)c1ccc(-c2ccnc3[nH]ccc23)cc1"
observation_type = "%Inh"
val = 0

[[record]]
compound = "[2H]C([2H])(c1cccc(C(F)(F)F)c1C)n1ccn2c(=O)nc(N3CCOCC3)cc12"
observation_type = "%Inh"
val = 0

[[record]]
compound = "CNc1ncnc2[nH]ncc12"
observation_type = "%Inh"
val = 0

[[record]]
compound = "CCc1ccnc(/C=C/c2n[nH]c3cc(Sc4ccccc4C(=O)NC)ccc23)c1"
observation_type = "%Inh"
val = 3


Sample Cn1ccc2ncnc(Oc3ccc(NC(=O)Nc4ccncc4)c(Cl)c3)c21 ; %Inh observed: 0

Sample Cc1cccc(-c2nc(Nc3ccc4ncsc4c3)c3ccccc3n2)n1 ; %Inh observed: 0
